Quick reference: EC50 of the listed items.
# target.system: Luciferin 4-monooxygenase (Photinus pyralis, UniProt P08659)
# Sequence (P08659 whole entry): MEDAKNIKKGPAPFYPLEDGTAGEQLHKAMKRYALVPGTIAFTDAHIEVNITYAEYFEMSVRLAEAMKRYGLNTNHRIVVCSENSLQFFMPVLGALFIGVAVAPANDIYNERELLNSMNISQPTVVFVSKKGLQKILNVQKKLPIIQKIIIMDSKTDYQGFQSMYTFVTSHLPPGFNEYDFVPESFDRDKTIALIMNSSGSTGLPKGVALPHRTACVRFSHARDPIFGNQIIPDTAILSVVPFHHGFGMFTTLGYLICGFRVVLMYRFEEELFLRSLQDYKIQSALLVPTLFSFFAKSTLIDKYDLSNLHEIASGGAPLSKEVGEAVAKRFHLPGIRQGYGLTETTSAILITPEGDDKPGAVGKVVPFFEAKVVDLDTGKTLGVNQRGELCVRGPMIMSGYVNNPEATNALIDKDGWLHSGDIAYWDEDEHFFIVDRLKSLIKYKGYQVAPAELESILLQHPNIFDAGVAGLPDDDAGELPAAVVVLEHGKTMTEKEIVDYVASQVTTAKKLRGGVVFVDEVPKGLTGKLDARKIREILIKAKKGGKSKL
# protocol.description: firefly luciferase enzyme inhibitors, dose response, biochemical, luminescence (AID 1891)
Calls of active or inactive are those of the source. Cut-off read from the data, not from the text of the source: actives have a measured EC50 and inactives only a lower limit.
parameter.measured: EC50

> print(dat)
                                   compound                 result
1  Cc1ccc(NC(C)C(=O)N/N=C/c2c[nH]c3ccccc23)cc1 (centres undefined)  > 112 µM (not active)
2  CCC(CC)c1nnc(NC(=O)CCNC(=O)c2ccccc2Cl)s1  > 112 µM (not active)
3  Cc1ccc(/C=N/NC(=O)C(O)c2ccccc2)o1 (centres undefined)  > 112 µM (not active)
4              Cc1cccc(N=C(S)NCc2ccncc2)c1C  > 112 µM (not active)
5  Cc1ccc(-c2nnc(CSc3nc(C(C)C)nc4sc(C)c(C)c34)o2)cc1  > 112 µM (not active)
6       NC(=O)CSc1cn(Cc2ccc(F)cc2)c2ccccc12  > 112 µM (not active)
7  COc1ccc(C2CC(=O)Nc3sc(=N)c4c(N)c(C#N)c(N)nc4c32)cc1OC (centres undefined)  > 112 µM (not active)
8   Oc1ccc(/C=N/NC(=S)N/N=C/c2ccc(O)cc2)cc1      0.316 µM (active)
9          CSc1ccccc1C(=O)Nc1nc2ccccc2[nH]1  > 112 µM (not active)
